# measurement target: Cyclin-dependent kinase 9 (Homo sapiens, UniProt P50750)
# Sequence (P50750 whole entry): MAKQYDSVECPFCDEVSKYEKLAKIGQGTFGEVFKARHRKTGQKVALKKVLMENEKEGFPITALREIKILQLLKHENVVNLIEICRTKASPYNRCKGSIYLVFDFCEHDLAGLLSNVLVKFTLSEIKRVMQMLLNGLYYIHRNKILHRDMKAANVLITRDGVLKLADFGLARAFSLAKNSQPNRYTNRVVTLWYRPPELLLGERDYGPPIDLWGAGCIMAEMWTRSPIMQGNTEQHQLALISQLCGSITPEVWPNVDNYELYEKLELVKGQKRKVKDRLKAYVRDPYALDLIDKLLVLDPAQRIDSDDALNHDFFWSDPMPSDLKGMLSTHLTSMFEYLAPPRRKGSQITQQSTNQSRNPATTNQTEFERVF
# test details: Inhibition of human CDK9 at 1 uM by mobility shift assay relative to control
quantity name: inhibition (%)

- smiles structure: "CC(C)N1c2cc(Nc3nccc(-c4cccc(C#N)c4)n3)ccc2N(C)C(=O)[C@H]1C"
  quantity name: "inhibition"
  unit spec: "%"
  val: 71.8
- smiles structure: "CC(C)N1c2cc(Nc3nccc(-c4cccc(Nc5ccccc5)c4)n3)ccc2N(C)C(=O)[C@H]1C"
  quantity name: "inhibition"
  unit spec: "%"
  val: 47.8
- smiles structure: "Cc1ccccc1-c1ccnc(Nc2ccc3c(c2)N(C(C)C)[C@H](C)C(=O)N3C)n1"
  quantity name: "inhibition"
  unit spec: "%"
  val: 1

P. CC(C)N1c2cc(Nc3nccc(-c4ccncc4)n3)ccc2N(C)C(=O)[C@H]1C
Q. CC(C)N1c2cc(Nc3cccc(-c4cccc(C#N)c4)c3)ccc2N(C)C(=O)[C@H]1C
R. CC(C)N1c2cc(Nc3nccc(-c4c[nH]c5ccccc45)n3)ccc2N(C)C(=O)[C@H]1C
S. CC(C)N1c2cc(Nc3cccc(-c4ccccc4)c3)ccc2N(C)C(=O)[C@H]1C
T. CC(C)N1c2cc(Nc3cccc(-c4ccncc4)c3)ccc2N(C)C(=O)[C@H]1C
Which order do these items take when sorted by rising inhibition? List them. Please list each label once, in the requested order.
Q, T, S, R, P
(Q: -4.1%, T: 0.7%, S: 1.3%, R: 58.6%, P: 98%)

I. CC(C)N1c2cc(Nc3nccc(-c4ccccc4)n3)ccc2N(C)C(=O)[C@H]1C
II. COc1ccccc1-c1cccc(Nc2ccc3c(c2)N(C(C)C)[C@H](C)C(=O)N3C)c1
Lab notebook, comparison: I versus II , higher inhibition goes to which? To answer, give the label that identifies your chosen option.
I
(I: 102%, II: 3.8%)

###

# measurement target: UniProt:Q00534
# Sequence (Q00534 whole entry): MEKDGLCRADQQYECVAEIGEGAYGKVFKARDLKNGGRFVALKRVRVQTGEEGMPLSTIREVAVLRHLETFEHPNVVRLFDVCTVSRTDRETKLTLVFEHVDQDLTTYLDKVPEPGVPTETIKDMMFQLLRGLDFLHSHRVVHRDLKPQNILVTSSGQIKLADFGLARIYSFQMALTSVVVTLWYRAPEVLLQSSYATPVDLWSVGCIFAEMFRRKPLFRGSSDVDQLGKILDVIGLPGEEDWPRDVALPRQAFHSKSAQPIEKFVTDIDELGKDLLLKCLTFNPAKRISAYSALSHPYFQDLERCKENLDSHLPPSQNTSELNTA
# test details: Inhibition of CDK6 (unknown origin) at 100 nM relative to control
quantity name: inhibition (%)

- smiles structure: "CC(C)N1c2cc(Nc3nccc(-c4cccc(C#N)c4)n3)ccc2N(C)C(=O)[C@H]1C"
  measurement target: "UniProt:Q00534"
  unit spec: "%"
  inhibition: -0.8
- smiles structure: "CC(C)N1c2cc(Nc3nccc(-c4ccccc4)n3)ccc2N(C)C(=O)[C@H]1C"
  measurement target: "UniProt:Q00534"
  unit spec: "%"
  inhibition: -0.8
- smiles structure: "CC(C)N1c2cc(Nc3cccc(-c4cccc(C#N)c4)c3)ccc2N(C)C(=O)[C@H]1C"
  measurement target: "UniProt:Q00534"
  unit spec: "%"
  inhibition: 2.3
- smiles structure: "CC(C)N1c2cc(Nc3cccc(-c4ccccc4)c3)ccc2N(C)C(=O)[C@H]1C"
  measurement target: "UniProt:Q00534"
  unit spec: "%"
  inhibition: 1.8
- smiles structure: "CC(C)N1c2cc(Nc3cccc(-c4ccncc4)c3)ccc2N(C)C(=O)[C@H]1C"
  measurement target: "UniProt:Q00534"
  unit spec: "%"
  inhibition: 2.7

a. COc1ccccc1-c1ccnc(Nc2ccc3c(c2)N(C(C)C)[C@H](C)C(=O)N3C)n1
b. COc1ccccc1-c1cccc(Nc2ccc3c(c2)N(C(C)C)[C@H](C)C(=O)N3C)c1
c. CC(C)N1c2cc(Nc3nccc(-c4ccncc4)n3)ccc2N(C)C(=O)[C@H]1C
Output the entries ranked by inhibition from maximum down to minimum. Please list each label once, in the requested order.
a, c, b
(a: 2.3%, c: 0.2%, b: -1.4%)

###

# measurement target: Bromodomain-containing protein 4 (Homo sapiens)
# test details: Inhibition of His6-tagged BRD4 bromodomain 1 (unknown origin) expressed in Escherichia coli Bl21(DE3) cells incubated for 4 hrs by FP assay
pIC50: −log10 of the molar value.
quantity name: pIC50

Some entries whose results are on file:
- smiles structure: "CC(C)N1c2cc(Nc3ncc(F)c(-c4cncc5ccccc45)n3)ccc2N(C)C(=O)[C@H]1C"
  pIC50: 7.09
- smiles structure: "CNc1cccc(-c2ccnc(Nc3ccc4c(c3)N(C(C)C)[C@H](C)C(=O)N4C)n2)c1"
  pIC50: 6.76
- smiles structure: "CC(C)N1c2cc(Nc3cccc(-c4ccccc4)c3)ccc2N(C)C(=O)[C@H]1C"
  pIC50: 6.45

a. CC(C)N1c2cc(Nc3nccc(-c4ccc(N)cc4)n3)ccc2N(C)C(=O)[C@H]1C
b. CC(C)N1c2cc(Nc3nccc(-c4cccc(C#N)c4)n3)ccc2N(C)C(=O)[C@H]1C
Lab notebook, comparison: a versus b , higher pIC50 goes to which? To answer, give the label that identifies your chosen option.
b
(b: 6.79, a: 6.32)

###

# measurement target: Aurora kinase A (Homo sapiens)
# test details: Inhibition AuroraA (unknown origin) at 100 nM relative to control
quantity name: inhibition (%)

1. CC(C)N1c2cc(Nc3cccc(-c4ccccc4)c3)ccc2N(C)C(=O)[C@H]1C
2. CC(C)N1c2cc(Nc3cccc(-c4ccncc4)c3)ccc2N(C)C(=O)[C@H]1C
3. CC(C)N1c2cc(Nc3nccc(-c4ccccc4)n3)ccc2N(C)C(=O)[C@H]1C
Your job: order these 3 records by inhibition, ascending. Please list each label once, in the requested order.
2, 1, 3
(2: -6.1%, 1: -3.4%, 3: 10.6%)

a. CC(C)N1c2cc(Nc3cccc(-c4cccc(C#N)c4)c3)ccc2N(C)C(=O)[C@H]1C
b. CC(C)N1c2cc(Nc3nccc(-c4cccc(C#N)c4)n3)ccc2N(C)C(=O)[C@H]1C
Lab notebook, comparison: a versus b , higher inhibition goes to which? To answer, give the label that identifies your chosen option.
b
(b: 8.7%, a: -3%)

###

# measurement target: Cyclin-dependent kinase 6 (Homo sapiens)
# test details: Inhibition of CDK6 (unknown origin) at 1 uM relative to control
quantity name: inhibition (%)

- smiles structure: "CC(C)N1c2cc(Nc3nccc(-c4cccc(C#N)c4)n3)ccc2N(C)C(=O)[C@H]1C"
  inhibition, %: 2.8
- smiles structure: "CC(C)N1c2cc(Nc3cccc(-c4ccccc4)c3)ccc2N(C)C(=O)[C@H]1C"
  inhibition, %: 0.9
- smiles structure: "CC(C)N1c2cc(Nc3cccc(-c4ccncc4)c3)ccc2N(C)C(=O)[C@H]1C"
  inhibition, %: 0.7
- smiles structure: "COc1ccccc1-c1ccnc(Nc2ccc3c(c2)N(C(C)C)[C@H](C)C(=O)N3C)n1"
  inhibition, %: 8.1

a. CC(C)N1c2cc(Nc3nccc(-c4ccccc4)n3)ccc2N(C)C(=O)[C@H]1C
b. CC(C)N1c2cc(Nc3cccc(-c4cccc(C#N)c4)c3)ccc2N(C)C(=O)[C@H]1C
c. CC(C)N1c2cc(Nc3nccc(-c4ccncc4)n3)ccc2N(C)C(=O)[C@H]1C
d. COc1ccccc1-c1cccc(Nc2ccc3c(c2)N(C(C)C)[C@H](C)C(=O)N3C)c1
Output the entries ranked by inhibition from maximum down to minimum. Please list each label once, in the requested order.
c, a, d, b
(c: 7.7%, a: 4.8%, d: -0.1%, b: -3.3%)

###

# measurement target: Cyclin-dependent kinase 9 (Homo sapiens, UniProt P50750)
# test details: Inhibition of human CDK9 at 100 nM by mobility shift assay relative to control
quantity name: inhibition (%)

- smiles structure: "CC(C)N1c2cc(Nc3nccc(-c4ccncc4)n3)ccc2N(C)C(=O)[C@H]1C"
  inhibition [%]: 94.5
- smiles structure: "CC(C)N1c2cc(Nc3cccc(-c4cccc(C#N)c4)c3)ccc2N(C)C(=O)[C@H]1C"
  inhibition [%]: 2
- smiles structure: "CC(C)N1c2cc(Nc3nccc(-c4cccc(Nc5ccccc5)c4)n3)ccc2N(C)C(=O)[C@H]1C"
  inhibition [%]: 8.8
- smiles structure: "CC(C)N1c2cc(Nc3cccc(-c4ccccc4)c3)ccc2N(C)C(=O)[C@H]1C"
  inhibition [%]: -6.1
- smiles structure: "CC(C)N1c2cc(Nc3nccc(-c4c[nH]c5ccccc45)n3)ccc2N(C)C(=O)[C@H]1C"
  inhibition [%]: 7.6
- smiles structure: "CC(C)N1c2cc(Nc3nccc(-c4ccccc4)n3)ccc2N(C)C(=O)[C@H]1C"
  inhibition [%]: 83.4

P. COc1ccccc1-c1ccnc(Nc2ccc3c(c2)N(C(C)C)[C@H](C)C(=O)N3C)n1
Q. COc1ccccc1-c1cccc(Nc2ccc3c(c2)N(C(C)C)[C@H](C)C(=O)N3C)c1
R. CC(C)N1c2cc(Nc3cccc(-c4ccncc4)c3)ccc2N(C)C(=O)[C@H]1C
S. CC(C)N1c2cc(Nc3nccc(-c4cccc(C#N)c4)n3)ccc2N(C)C(=O)[C@H]1C
T. Cc1ccccc1-c1ccnc(Nc2ccc3c(c2)N(C(C)C)[C@H](C)C(=O)N3C)n1
Output the entries ranked by inhibition from maximum down to minimum. Please list each label once, in the requested order.
P, S, R, T, Q

###

# measurement target: Aurora kinase A (Homo sapiens) (UniProt O14965)
# Sequence (O14965 whole entry): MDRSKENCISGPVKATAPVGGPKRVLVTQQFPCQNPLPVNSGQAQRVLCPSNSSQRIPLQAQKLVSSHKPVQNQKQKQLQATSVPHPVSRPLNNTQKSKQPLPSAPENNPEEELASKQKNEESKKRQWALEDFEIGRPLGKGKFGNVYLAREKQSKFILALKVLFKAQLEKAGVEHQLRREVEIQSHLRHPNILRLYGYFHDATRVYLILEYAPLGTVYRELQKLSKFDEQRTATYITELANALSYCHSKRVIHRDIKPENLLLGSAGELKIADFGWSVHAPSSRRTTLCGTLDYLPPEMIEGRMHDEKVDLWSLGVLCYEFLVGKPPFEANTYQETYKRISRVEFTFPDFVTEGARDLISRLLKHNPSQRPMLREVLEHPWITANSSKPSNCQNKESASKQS
# test details: Inhibition AuroraA (unknown origin) at 100 nM relative to control
quantity name: inhibition (%)

1. COc1ccccc1-c1ccnc(Nc2ccc3c(c2)N(C(C)C)[C@H](C)C(=O)N3C)n1
2. COc1ccccc1-c1cccc(Nc2ccc3c(c2)N(C(C)C)[C@H](C)C(=O)N3C)c1
Compare reported inhibition values for 1 and 2 . Which is lower? To answer, give the label that identifies your chosen option.
2

Data origin: ChEMBL document CHEMBL4725348
